- ASSAY TEXT: chemical genetic growth profiling, strain panel (AID 1159580);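 also: tested at 20 µM; growth read once vehicle control cultures reached saturation at 30 °C; 1 = growth at the plate median or of vehicle wells; lower values mean less growth of the strain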
- CONDITION SUMMARY: S. cerevisiae deletion strains, growth OD, locus YHR142W, strain chs7
Screen size: about 5,500 compounds; about 2,000 (36%) were called active. Inconclusive results (about 18%) are left out. Rule as the data show it: active = normalized growth mostly below about 0.91 (no sharp cut-off); inconclusive = no clear call, values can overlap the other calls; inactive = mostly above about 0.92. The list shows a part of the results.
Select the correct class. Options are 1 (yes) = active, 0 (no) = inactive and nothing else.

Look up the recorded call for `O=C(O)C1=C[C@@H](O)[C@@H](O)[C@H](O)C1` in this test.
0 (no)

Look up the recorded call for `CCc1cc(C(N)=S)ccn1` in this test.
0 (no)

Look up the recorded call for `Cc1cc(OC(=O)c2c(C)cc(O)cc2O)cc(O)c1C(=O)O` in this test.
0 (no)

Look up the recorded call for COC(=O)[C@]1(C)CCC[C@]2(C)c3ccc(C(C)C)cc3C(=O)CC12 (stereo partly drawn) in this test.
0 (no)

Look up the recorded call for `CCOC(=O)c1c(C)cc(OC)cc1O` in this test.
0 (no)

Look up the recorded call for `CCOC(=O)c1c(C)cc(O)cc1O` in this test.
1 (yes)

Look up the recorded call for `COC(=O)c1c(C)cc(O)cc1O` in this test.
0 (no)

Look up the recorded call for CC(C)c1c(O)ccc2c1CCC1C(C)(C)CCC[C@]21C (stereo partly drawn) in this test.
1 (yes)

Look up the recorded call for CNC(C)C(O)c1ccccc1 (stereo not drawn) in this test.
0 (no)

Look up the recorded call for CC(=O)Oc1ccc2c(c1C(C)C)CCC1C(C)(C)CCC[C@]21C (stereo partly drawn) in this test.
0 (no)

Look up the recorded call for NS(=O)(=O)c1cc(C2(O)NC(=O)c3ccccc32)ccc1Cl (stereo not drawn) in this test.
0 (no)

Look up the recorded call for CC(C)c1c(O)ccc2c1CCC1[C@@](C)(C=O)CCC[C@]21C (stereo partly drawn) in this test.
0 (no)

Look up the recorded call for `COC(=O)c1c(C)cc(OC)cc1O` in this test.
0 (no)

The values you see were collected from PubChem BioAssay AID1159580.
